Organism: Rattus norvegicus
procedure text: Open TG-GATES - Regimen: Daily Repeat
Assay type: toxicity, organism-based, Sprague-Dawley
Design: regimen Daily Repeat, gender Male, age 6 weeks
run parameters: in vivo, po, 300 mg/kg, […], tissue Plasma, route gavage, dose level Middle, time 14 day
readout type: GLC (mg/dL)
Report as a plain number; the unit mg/dL is understood.

// below: answered compounds
[[record]]
compound = "COc1ccc2[nH]c([S+]([O-])Cc3ncc(C)c(OC)c3C)nc2c1 (stereo not given)"
recorded_measurement = 205.4

[[record]]
compound = "CCOc1ccc(NC(=O)CC(C)O)cc1 (stereo not given)"
recorded_measurement = 189.4


In: Give the measured GLC of CCOC(=O)CCC(=O)O[C@H]1[C@H](O[C@@H]2[C@@H](C)[C@H](O[C@H]3C[C@@](C)(OC)[C@@H](O)[C@H](C)O3)[C@@H](C)C(=O)O[C@H](CC)[C@@](C)(O)[C@H](O)[C@@H](C)C(=O)[C@H](C)C[C@@]2(C)O)O[C@H](C)C[C@@H]1N(C)C [ERYTHROMYCIN ETHYLSUCCINATE] .
Out: 206.6

In: Quick one: GLC of NC(N)=Nc1nc(CSCCC(N)=NS(N)(=O)=O)cs1 ?
Out: 208.2

In: Reported GLC, compound COC1=CC(=O)C[C@@H](C)[C@]12Oc1c(Cl)c(OC)cc(OC)c1C2=O : ____
Out: 221.6

The reported numbers originate from ChEMBL document CHEMBL3885861.
